Tested on: Huh7 cells
Experiment: LD content in Huh7 cells pre-treated with insulin, Oil-Red-O staining, absorbance OD 540 nm
Format: cell-based
Conditions: Homo sapiens, Huh-7, Huh7 cells, procedure of Example 3; read-out: LD content inhibition (EC50)
pEC50: −log10 of the molar value.
# maps each entry to its pEC50

{"columns": ["compound", "pEC50"],
 "data": [
  ["CCOC(=O)c1ccc(-c2cc(C(N)=O)c(N)c(-c3ccc(S(N)(=O)=O)cc3)c2)cc1", 5.99],
  ["Nc1c(C(=O)Nc2ccsc2)cc(-c2ccc(Cl)cc2)cc1-c1ccc(S(N)(=O)=O)cc1", 5.92],
  ["NC(=O)c1cc(-c2ccc(Cl)cc2)cc(-c2ccc(NC(N)=S)cc2)c1N", 6.01],
  ["NC(=O)c1cc(-c2ccc(Cl)cc2)cc(-c2ccc(OP(=O)(O)O)cc2)c1N", 6.12]
]}

====

System: Huh7 cells
Assay: LD content in Huh7 cells pre-treated with insulin, Oil-Red-O staining, absorbance OD 540 nm
Assay type: cell-based
Settings: Homo sapiens, Huh-7, Huh7 cells, procedure of Example 3; read-out: LD content inhibition (EC50)
pEC50: −log10 of the molar value.
experimentalReadout: pEC50

{"columns": ["compound", "reportedMeasurement"],
 "data": [
  ["NC(=O)N1CCN(c2cc(-c3ccc(Cl)cc3)cc(-c3ccc(S(N)(=O)=O)cc3)c2N)CC1", 4.82],
  ["NCCC(=O)Nc1c(C(N)=O)cc(-c2ccc(Cl)cc2)cc1-c1ccc(S(N)(=O)=O)cc1", 6.32],
  ["COc1ccc(C#Cc2cc(C(N)=O)c(N)c(-c3ccc(S(N)(=O)=O)cc3)c2)cc1", 6.00],
  ["CCCC(=O)Oc1ccc(-c2cc(C(N)=O)c(N)c(-c3ccc(S(N)(=O)=O)cc3)c2)cc1", 5.88]
]}

====

System: Huh7 cells
Experiment: LD content in Huh7 cells pre-treated with insulin, Oil-Red-O staining, absorbance OD 540 nm
Type: cell-based
Settings: Homo sapiens, Huh-7, Huh7 cells, procedure of Example 3; read-out: LD content inhibition (EC50)
pEC50: −log10 of the molar value.
# maps each entry to its pEC50
experimentalReadout: pEC50

{"columns": ["compound", "reportedMeasurement"],
 "data": [
  ["N=C(N)Nc1ccc(-c2cc(-c3ccc(Cl)cc3)cc(C(N)=O)c2N)cc1", 5.90],
  ["CCCC(=O)Oc1cccc(/C=C/c2cc(C(N)=O)c(N)c(-c3ccc(S(N)(=O)=O)cc3)c2)c1", 6.12],
  ["NC(=O)c1cc(-c2c[nH]c(Cl)c2)cc(-c2ccc(S(N)(=O)=O)cc2)c1N", 4.98]
]}

====

Test system: SREBP-2
Assay: SREBP-2 expression in cultured primary human hepatocytes
Format: cell-based
Conditions: Homo sapiens, Hepatocyte, procedure of Example 6, read-out: SREBP-2 mRNA inhibition (EC50)
# maps each entry to its EC50

{"columns": ["molecule", "assayedSystem", "EC50 / µM"],
 "data": [
  ["Nc1c(C(=O)Nc2ccc(F)c(F)c2)cc(-c2ccc(Br)cc2)cc1-c1ccc(S(N)(=O)=O)cc1", "SREBP-2", 6.79],
  ["NC(=O)c1cc(C2CCC(Br)CC2)cc(-c2ccc(S(N)(=O)=O)cc2)c1N (stereo not shown)", "SREBP-2", 2.55],
  ["NC(=O)c1cc(-c2ccc(Cl)cc2)cc(-c2ccc(NC(N)=S)cc2)c1N", "SREBP-2", 2.45],
  ["NC(=O)c1cc(Nc2ccc(Cl)cc2)cc(-c2ccc(S(N)(=O)=O)cc2)c1N", "SREBP-2", 10.3],
  ["CCCC(=O)Oc1ccc(-c2cc(C(N)=O)c(N)c(-c3ccc(S(N)(=O)=O)cc3)c2)cc1", "SREBP-2", 3.26],
  ["NC(=O)c1cc(-c2ccc(Cl)cc2)cc(NCCc2ccc(S(N)(=O)=O)cc2)c1N", "SREBP-2", 3.44],
  ["Nc1c(-c2ccc(S(N)(=O)=O)cc2)cc(-c2ccc(Br)cc2)cc1N1CCNCC1", "SREBP-2", 50.8]
]}

Cited source for all entries: patent US11000491B2
